So I've got a bunch of molecules here, and I need their GI50 values.
# TARGET_OR_SYSTEM: Ba/F3 cells expressing p210Bcr-Abl-T315I (Homo sapiens, UniProt P00519, T315I, cells depend on it)
# Construct: fused on or other part: P11274 (Breakpoint cluster region protein)
# MEASUREMENT_DESCRIPTION: phenoresponse-based cellular assay (cell count and viability), Ba/F3 T315I test cells;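 note: cells counted by automated microcell imaging, viability scored by trypan blue exclusion, phenoresponse judged against parental Ba/F3 and Ba/F3 carrying wild-type p210Bcr-Abl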
# Parameters: species or system murine
# MEASUREMENT_CONDITIONS: concentration inhibiting growth of the cell line by 50% in the cellular assay, read-out: T315I (IC50 activity category)

Prompt line: What does the record list as GI50 for Oc1cccc(-c2cccc(Nc3ccc(/C=N/Nc4ncc(F)c(N5CCOCC5)n4)nc3)c2)c1 ?
Response line: < 300 nM

Prompt line: What does the data say about its GI50? Entry: Cc1cccc(Cl)c1NC(=O)C/C=N/Nc1ncc(F)c(N2CCOCC2)n1
Response line: > 10000 nM

Prompt line: Give its GI50 value. Item: C/C(=N\Nc1ncc(F)c(N2CCOCC2)n1)c1ccc(Nc2cccc(C(F)(F)F)c2)cn1
Response line: < 300 nM

Prompt line: # get_value(readout='GI50', item= Fc1cnc(N/N=C/c2ccc(Nc3ccc(-c4ccccn4)c(Cl)c3)cn2)nc1N1CCOCC1 )
Response line: < 1000 nM

Prompt line: Report GI50 for Oc1cccc(-c2ccc(Nc3ccc(/C=N/Nc4ncc(F)c(N5CCOCC5)n4)nc3)cc2)c1 please.
Response line: < 300 nM

Prompt line: Which GI50 value belongs to Oc1cccc(Nc2cccc(Nc3ccc(/C=N/Nc4ncc(F)c(N5CCOCC5)n4)nc3)c2)c1 ?
Response line: < 1000 nM

Prompt line: Reported GI50, molecule CC(C(=O)O)c1ccc(Nc2ccc(/C=N/Nc3ncc(F)c(N4CCOCC4)n3)nc2)cc1 (centres unmarked) : ____
Response line: > 10000 nM

Prompt line: Could you tell me which GI50 is on file for Fc1cnc(N/N=C/c2ccc(Nc3cccc(C(F)(F)F)c3)cn2)nc1NCCN1CCOCC1 ?
Response line: < 300 nM

Prompt line: Quick one: GI50 of Oc1c(Cl)cc(Br)cc1/C=N/Nc1ncc(F)c(N2CCOCC2)n1 ?
Response line: < 300 nM

Prompt line: // query GI50 value for entry Fc1cnc(N/N=C/c2ccc(Nc3cccc(C(F)(F)F)c3)cn2)nc1N1CCOCC1
Response line: < 300 nM

Prompt line: Would you mind telling me what GI50 value was observed for Cc1cc(Nc2cccc(C(F)(F)F)c2)ccc1/C=N/Nc1ncc(F)c(N2CCOCC2)n1 ?
Response line: > 10000 nM

Prompt line: Look up GI50 for this molecule: Fc1cnc(N/N=C/c2ccc(Nc3cccc(C(F)(F)F)c3)cn2)nc1NCc1ccccc1
Response line: < 300 nM

Prompt line: Quick check: GI50 of O=C(C/C=N/Nc1ncc(F)c(N2CCOCC2)n1)Nc1cccc(C(F)(F)F)c1 ?
Response line: > 10000 nM

Prompt line: What measured GI50 goes with Oc1ccc(Br)cc1/C=N/Nc1ncc(F)c(N2CCOCC2)n1 ?
Response line: < 1000 nM

Prompt line: Item under review: Fc1cnc(N/N=C/c2ccc(Nc3cccc(C(F)(F)F)c3)cn2)nc1-c1cncc(C2CC2)c1 . Reported GI50?
Response line: < 10000 nM

Prompt line: What does the record list as GI50 for Fc1cnc(N/N=C/c2ccccc2)nc1N1CCOCC1 ?
Response line: > 10000 nM

Prompt line: // returns reported GI50 for input Fc1cnc(N/N=C/c2ccccn2)nc1N1CCOCC1
Response line: < 1000 nM

All values here come from patent US20090275070A1.
